System: OVCAR-5
procedure-summary: NCI tumour cell line growth inhibition, 48 h
The source made the active and inactive calls. No stated cut-off is given here; in the data, active = GI50 up to about 1.1 µM and inactive = higher.
Your answer must be one of the following: active, inactive

compound	group
COC1CC(C)(NC(C)=O)C2OC(c3ccccc3)OCC2O1 (stereo unspecified)	inactive
CC[C@H](CCCCC1CC[C@@H]2CC(=O)C[C@H]12)OC (stereo partly specified)	inactive
O=C(Nc1ccc(Br)cc1)C(=O)C(C(=O)c1ccc(Cl)c(Cl)c1)C1OC(=O)c2ccccc21 (stereo unspecified)	inactive
COC(=O)[C@@]12CSC[C@]1(C(=O)OC)N[C@@H](c1ccccc1O)C2	inactive
Cc1cc2c(C)n(Cc3ccc(Cl)cc3Cl)nc2c(C#N)c1C	inactive

Qu. // return assay outcome for `COc1ccc(/C=C(\C(=C/c2ccc(OC)cc2)[N+](=O)[O-])[N+](=O)[O-])cc1`
Ans. inactive

Qu. // return assay outcome for O=C(O)C(C1NCCS1)N1C(=O)c2ccccc2C1=O (stereo unspecified)
Ans. inactive

Qu. // return assay outcome for `CN1CCN(c2ccc3[nH]c(-c4ccc5[nH]c(-c6ccc(N(C)CCCl)cc6)nc5c4)nc3c2)CC1`
Ans. inactive

Qu. // return assay outcome for `O=C(O)C1(C(=O)O)CCN(S(=O)(=O)c2ccccc2)CC1`
Ans. inactive

Qu. // return assay outcome for CNC1=C(C)C(=O)C2=C(C1=O)C(COC(N)=O)C1(OC)C3NC3CN21 (stereo unspecified)
Ans. inactive

Qu. // return assay outcome for `CN(CCCNc1ccc2ncn3c4ccccc4c(=O)c1c23)CCCN1C(=O)c2cccc3cc([N+](=O)[O-])cc(c23)C1=O`
Ans. inactive

Qu. // return assay outcome for `COc1c2occc2cc2ccc(=O)oc12`
Ans. inactive

Qu. // return assay outcome for `C/C(=C\c1csc(C)n1)[C@@H]1C[C@@H]2O[C@@H]2CCC[C@H](C)[C@H](O)[C@@H](C)C(=O)C(C)(C)[C@@H](O)CC(=O)O1.C/C(=C\c1csc(C)n1)[C@@H]1C[C@@H]2O[C@]2(C)CCC[C@H](C)[C@H](O)[C@@H](C)C(=O)C(C)(C)[C@@H](O)CC(=O)O1`
Ans. active

Qu. // return assay outcome for CCOC1(OCC)C2C=CC1C(COS(=O)(=O)c1ccc(C)cc1)C2COS(=O)(=O)c1ccc(C)cc1 (stereo unspecified)
Ans. inactive

Qu. // return assay outcome for `CCOC(=O)[C@H](C)OC(=O)[C@@](C)(NC(=O)c1ccccc1C(=O)OC)[C@@H]1NC=C(C(=O)OC)CS1`
Ans. inactive

Qu. // return assay outcome for C=C(C)[C@@H]1CC[C@]2(C(=O)OC)CC[C@]3(C)[C@H](CC[C@@H]4[C@@]5(C)CC[C@H](O)C(C)(C)[C@@H]5CC[C@]43C)[C@@H]12 [METHYL BETULINATE]
Ans. inactive

Qu. // return assay outcome for COC(=O)C(=O)C(C(C)=O)C(=O)NCc1ccc(OC)c(OC)c1 (stereo unspecified)
Ans. inactive

Qu. // return assay outcome for CC(=O)NC1C(OCc2ccccc2)OC(CO)C(O)C1OCC(=O)NC(C(=O)NC(CCC(=O)NCCCCCC(=O)Nc1ccc2c(c1)CN1C(=O)c3ccccc3C1=N2)C(N)=O)C(C)C (stereo unspecified)
Ans. inactive

Qu. // return assay outcome for `O/N=N\c1nc(-c2ccccn2)nc2ccccc12`
Ans. inactive

Qu. // return assay outcome for `O=C(O)CCC[C@]1(O)O[C@@]2(CCCC2=O)[C@]2(O)CCC[C@@]21O`
Ans. inactive

Qu. // return assay outcome for `O=c1[nH]c2nc3ccccc3c(=O)n2/c1=C/c1ccc(Cl)cc1`
Ans. inactive

Qu. // return assay outcome for CC(=O)OCCC1c2ccccc2-n2nc(-c3ccccc3)c(O)c21 (stereo unspecified)
Ans. inactive

Qu. // return assay outcome for CCCCN1CCC(O)(c2cc(C(=O)O)[nH]c2-c2cc(C)no2)C1=O (stereo unspecified)
Ans. inactive

###

System: HT-29
procedure-summary: NCI tumour cell line growth inhibition, 48 h
Active and inactive are the calls of the source. Cut-off read from the data, not from the text of the source: active = GI50 up to about 1.1 µM and inactive = higher.
reported-endpoint: GI50

Previously resolved entries follow.
mol-smiles	subject-of-test	GI50
CCCCCCc1cc(C=O)sc1-c1ccc(-c2sc(-c3ccc(-c4ccc(-c5cc(CCCCCC)c(-c6ccc(-c7sc(C=O)cc7CCCCCC)s6)s5)s4)s3)cc2CCCCCC)s1	HT-29	> 100 µM (inactive)
CC(=O)/N=C1\NC(=O)/C(=C/c2ccc(/C=C3/C(=O)N/C(=N\C(C)=O)N3C)cc2)N1C	HT-29	> 100 µM (inactive)
CC(=O)OCC(=O)[C@@]12OC(C)(C)O[C@@H]1C[C@H]1[C@@H]3CC=C4C[C@@H](O)CC[C@]4(C)[C@H]3CC[C@@]12C	HT-29	> 100 µM (inactive)

Qu. Could you tell me which GI50 is on file for `O=S1(=O)OCCOS(=O)(=O)C1Cc1ccccc1` ?
Ans. 63.5 µM (inactive)

###

// GI50 lookup, one value per entry
System: U-251
procedure-summary: NCI tumour cell line growth inhibition, 48 h
The source made the active and inactive calls. No stated cut-off is given here; in the data, active = GI50 up to about 1.1 µM and inactive = higher.

molecule	subject-of-test	reported-endpoint	measured-value
Cn1c(C(C#N)c2nc(Cl)ncc2Br)nc2ccccc21 (stereo not given)	U-251	GI50	> 100 µM (inactive)
Cc1ccc(-n2c(C)n[nH]c2=O)cc1	U-251	GI50	> 100 µM (inactive)
CCOC1(OCC)C2C=CC1C(COS(=O)(=O)c1ccc(C)cc1)C2COS(=O)(=O)c1ccc(C)cc1 (stereo not given)	U-251	GI50	29.9 µM (inactive)
Cc1nc2ccc(Cl)cc2c2c1CCO2	U-251	GI50	> 100 µM (inactive)
Cc1cccc(NC(=O)CCl)c1	U-251	GI50	2.24 µM (inactive)
CSc1cc(-c2cc3ccccc3o2)oc(=O)c1C#N	U-251	GI50	> 100 µM (inactive)
O=C(Nc1cccc(O)c1)C(=O)C(C(=O)c1ccccc1F)C1OC(=O)c2ccccc21 (stereo not given)	U-251	GI50	11.6 µM (inactive)
CC(=O)OCCC1c2ccccc2-n2nc(-c3ccccc3)c(O)c21 (stereo not given)	U-251	GI50	13.3 µM (inactive)
CC[C@]12C=CCN3CC[C@@]4(c5cc(Br)c(OC)cc5N(C)[C@H]4[C@@](O)(C(=O)NC(Cc4c[nH]c5ccccc45)C(=O)OC)[C@@H]1O)[C@@H]32 (stereo not given in full)	U-251	GI50	5.04 µM (inactive)

As a next step, examine the molecule that follows.
Qu. Could you tell me which GI50 is on file for `CCCCc1ccc(C#CC#Cc2ccc(CCCC)s2)s1` ?
Ans. > 100 µM (inactive)

###

Test system: PC-3
procedure-summary: NCI tumour cell line growth inhibition, 48 h
The source made the active and inactive calls. Rule as the data show it: active = GI50 up to about 1.1 µM and inactive = higher.
reported-endpoint: GI50

Previously resolved entries follow.
compound	GI50
CC(C)Oc1cccc(N2C(NCCc3c[nH]c4ccccc34)=Nc3ccncc3S2(=O)=O)c1	6.4 µM (inactive)
COc1ccccc1C1SCC(=O)N1c1ccc(-c2ccc(-n3c(-c4ccccc4)nc4ccccc4c3=O)cc2)cc1 (stereo not drawn)	> 100 µM (inactive)
CCCCCCCC1c2cc3nc(cc4[nH]c(cc5nc(cc([nH]2)[C@@]1(C)CC(=O)N(C)C)C(C)=C5CCC(=O)O)c(CCC(=O)O)c4C)C=C3C (stereo partly drawn)	23.8 µM (inactive)
CC(=O)C1=C(C)N(c2ccccc2)C2(O)C3=C(C(=O)c4ccccc4C3=O)C(O)=CC12Cl (stereo not drawn)	7.28 µM (inactive)
N#CCCN(C(=O)Nc1ccccc1)[C@H]1CCCC[C@@H]1N(C(=O)Nc1ccccc1)c1ccccc1	48.1 µM (inactive)
O=c1ccc(-c2ccc(-n3ccnc3)cc2)nn1CCO	> 100 µM (inactive)

Qu. Could you tell me which GI50 is on file for COC(=O)C1=C(O)C(C(=O)OC)[C@]2(O)[C@@H](C(=O)OC)[C@H]1[C@H](C)[C@@H](c1ccccc1)[C@@H]2C(=O)OC (stereo partly drawn) ?
Ans. 61.5 µM (inactive)

Qu. Could you tell me which GI50 is on file for `CNc1ccc2c(c1)Cc1ccccc1-2` ?
Ans. 32.7 µM (inactive)

###

Test system: KM12
procedure-summary: NCI tumour cell line growth inhibition, 48 h
Active and inactive are the calls of the source. No stated cut-off is given here; in the data, active = GI50 up to about 1.1 µM and inactive = higher.
Your answer must be one of the following: T for active, F for inactive

compound	group
Nn1c(S)nnc1-c1ccccc1Nc1ccccc1-c1nnc(S)n1N	F

Qu. // return assay outcome for Cc1ccc(SC(C)/C=C/NNC2=NN=C(c3ccccc3)C(c3ccccc3)N2)cc1 (stereo not drawn)
Ans. F

Qu. // return assay outcome for `C[C@@H]1CC[C@@]2(NC1)O[C@H]1C[C@H]3[C@@H]4CC[C@H]5C[C@@H](O)CC[C@]5(C)[C@H]4CC[C@]3(C)[C@H]1[C@@H]2C`
Ans. F

Qu. // return assay outcome for `Cc1nnc2sc(-c3ccc(N)cc3)nn12`
Ans. F

Qu. // return assay outcome for `COc1c(Br)cc(/C=C(\C#N)c2cccnc2)cc1Br`
Ans. F

Qu. // return assay outcome for COC(=O)C1=C(O)C(C(=O)OC)[C@]2(O)[C@@H](C(=O)OC)[C@H]1[C@H](C)[C@@H](c1ccccc1)[C@@H]2C(=O)OC (stereo partly drawn)
Ans. F

Qu. // return assay outcome for `CN1CCN(c2ccc3[nH]c(-c4ccc5[nH]c(-c6ccc(N(C)CCCl)cc6)nc5c4)nc3c2)CC1`
Ans. T

Qu. // return assay outcome for `Cc1c(/C=N\NC(=S)N2CCN(C(=S)N/N=C\c3c(C)n(C)n(-c4ccccc4)c3=O)CC2)c(=O)n(-c2ccccc2)n1C`
Ans. F
